Inhibition overview
- Test system: Candida albicans
- run parameters: 32 ug/mL
- Description: Antifungal activity against Candida albicans ATCC 90028 (CO-ADD:FG_001); MIC in YNB media using NBS plates, by OD630
Results with a measured potency or affinity are listed apart.
Write down the numeric answer in % and omit the unit.

A selection of reference data follows.
# compound, tested system, Inhibition (%)
rows = [
    ("COC(COc1cncc2nnc(-c3ccc(C#N)cc3)n12)c1ccc(F)c(F)c1 (stereo unspecified)", "Candida albicans", 2.84),
    ("O.O=C1c2cccc3c(-n4cc(CN5CCCNCCN(Cc6cn(-c7ccc8c9c(cccc79)C(=O)N(CCCO)C8=O)nn6)CCCNCC5)nn4)ccc(c23)C(=O)N1CCCO.[Cl-].[Cl-].[Zn+2]", "Candida albicans", 7.28),
    ("CN(C)C(COc1cncc2nnc(-c3ccc(C#N)cc3)n12)c1ccc(F)c(F)c1 (stereo unspecified)", "Candida albicans", 5.98),
    ("Fc1ccc(CCOc2cncc3nnc(-c4ccc(Cl)cc4)n23)cc1F", "Candida albicans", 7.82),
    ("Fc1ccc(CCOc2cncc3nnc(-c4ccc(C(F)(F)F)nc4)n23)cc1F", "Candida albicans", 2.23),
]

From here, focus on the item given below.
*Q* # value lookup — system Candida albicans, readout Inhibition, item N#Cc1ccc(-c2nnc3cncc(OCC(O)c4ccc(F)c(F)c4)n23)cc1 (stereo unspecified)
*A* 4.19
